Numbers sourced from the supplement of paper PMC9170038.

// values below are reported apparent KD of K4 kissing-loop reporter
system: K4 kissing-loop RNA reporter; experiment: apparent KD of K4 kissing-loop reporter; higher = weaker reporter binding; settings: Eterna round: R107; input ligand: none;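 also: bound reporter read as fluorescence of individual clusters on recovered sequencing chips by microscopy, with normalized cluster intensities fitted with a binding model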
assay-endpoint: apparent KD of K4 kissing-loop reporter (nM)

{"biopolymer-sequence": "AGAGUUAUGCGAGGAUAUGCGGUUAGUACUCAAAGAGUACUAACGCAGAGUGAUGUUCUGUGAAACACAGAAGGUGCAUAACUCA [Omei KL FMN B SS B v2]", "assay-endpoint": "apparent KD of K4 kissing-loop reporter", "endpoint-unit": "nM", "experimental-result": 249}
{"biopolymer-sequence": "AAACCAAUCAGAGGAUAUUCUUUAUUCGACAUAACCUUCUAUAAGGUGCAGUGAUGUUGCAAUAUAGGAGAAGGCUGAUUGACAA [Exclusion FMN B Gf 13]", "assay-endpoint": "apparent KD of K4 kissing-loop reporter", "endpoint-unit": "nM", "experimental-result": 516}
{"biopolymer-sequence": "AAGUGAUGUUGUAGUGAUGUUGUGAUGUUGCAGGAUAUAUAGUGAUGUAGAAGGGUAUGUGCAGUGUUGUUAUUUGAGUGUUGAU [zffdmullin]", "assay-endpoint": "apparent KD of K4 kissing-loop reporter", "endpoint-unit": "nM", "experimental-result": 78.7}
{"biopolymer-sequence": "UUUCGGUUCUGAGGAUAUUCGGACAAAUAUAGUGAUGUUGUAUAAGGAGGAGGGUGUUGGCAGUGCGGAGAAGGCAGACCACGAU [ExFMNB.X]", "assay-endpoint": "apparent KD of K4 kissing-loop reporter", "endpoint-unit": "nM", "experimental-result": 747}
{"biopolymer-sequence": "UUUAGGAGCGGUGUUGAUUAGGGAGCGGAAGGAGCGCCGAUUAUGGCAGGUAGGUCGCCGGAAUGUAGUGAUGUUGCAUAGAGGG [ExArgA.V]", "assay-endpoint": "apparent KD of K4 kissing-loop reporter", "endpoint-unit": "nM", "experimental-result": 185}
{"biopolymer-sequence": "AAAGAGUCACUCGAAGCUAUCGAAGAUAGGCGAGGACCGGUACGGCCGCCACUCGGAGUGAUGUUCCGAAGACUGUAAAAUAAAA [MatMod 12 - Jieux - Exclusion - Tryptophan A]", "assay-endpoint": "apparent KD of K4 kissing-loop reporter", "endpoint-unit": "nM", "experimental-result": 206}
